Hi there, I'd appreciate the recorded mass density for every entry that follows.
# Conditions: 338.15 K; 101.33 kPa; Liquid; Vibrating tube method
Number only, in kg/m3; omit the unit.

QUERY: // query mass density value for entry "CC(C)OC(=O)CC[C@H]([NH3+])C(=O)OC(C)C.CCCCCCCCCCCCOS(=O)(=O)[O-]"
RESULT: 1021.2

QUERY: // query mass density value for entry CC(C)COC(=O)[C@@H]1CCC[NH2+]1.CCCCCCCCCCCCOS(=O)(=O)[O-] [(S)-2-(isobutoxycarbonyl)pyrrolidinium dodecyl sulfate]
RESULT: 1007.61

QUERY: // query mass density value for entry CC(C)COC(=O)[C@H](C)[NH3+].CCCCCCCCCCCCOS(=O)(=O)[O-] [(S)-1-isobutoxy-1-oxopropan-2-aminium dodecyl sulfate]
RESULT: 1012.14

QUERY: // query mass density value for entry "CC(C)COC(=O)CC[C@H]([NH3+])C(=O)OCC(C)C.CCCCCCCCCCCCOS(=O)(=O)[O-]"
RESULT: 1003.54

QUERY: // query mass density value for entry "CC(C)OC(=O)[C@@H]([NH3+])C(C)C.CCCCCCCCCCCCOS(=O)(=O)[O-]"
RESULT: 997.39

QUERY: // query mass density value for entry CC(C)COC(=O)C[NH3+].CCCCCCCCCCCCOS(=O)(=O)[O-] [2-isobutoxy-2-oxoethan-1-aminium dodecyl sulfate]
RESULT: 988.22

QUERY: // query mass density value for entry CC(C)OC(=O)C[NH3+].CCCCCCCCCCCCOS(=O)(=O)[O-] [2-isopropoxy-2-oxoethan-1-aminium dodecyl sulfate]
RESULT: 1000.12

QUERY: // query mass density value for entry CC(C)OC(=O)[C@@H]1CCC[NH2+]1.CCCCCCCCCCCCOS(=O)(=O)[O-] [(S)-2-(isopropoxycarbonyl)pyrrolidin-1-ium dodecyl sulfate]
RESULT: 1018.2

* * *

# Conditions: 288.15 K; 101.33 kPa; Liquid; Sing-around technique in a fixed-path interferometer
Hi there, I'd appreciate the recorded speed of sound for every entry that follows.
Number only, in m/s; omit the unit.

QUERY: // query speed of sound value for entry CC(C)COC(=O)[C@H](C)[NH3+].CCCCCCCCCCCCOS(=O)(=O)[O-] [(S)-1-isobutoxy-1-oxopropan-2-aminium dodecyl sulfate]
RESULT: 1447.6

QUERY: // query speed of sound value for entry CC(C)COC(=O)[C@@H]1CCC[NH2+]1.CCCCCCCCCCCCOS(=O)(=O)[O-] [(S)-2-(isobutoxycarbonyl)pyrrolidinium dodecyl sulfate]
RESULT: 1460.2

QUERY: // query speed of sound value for entry "CC(C)OC(=O)CC[C@H]([NH3+])C(=O)OC(C)C.CCCCCCCCCCCCOS(=O)(=O)[O-]"
RESULT: 1439.7

* * *

Hi there, I'd appreciate the recorded refractive index for every entry that follows.
# Protocol notes: refractive index (Na D-line) (dimensionless)
# Conditions: 288.15 K; 101.33 kPa; Liquid; Standard Abbe refractometry
Could you respond with only the numeric value?

QUERY: // query refractive index value for entry "CC(C)OC(=O)CC[C@H]([NH3+])C(=O)OC(C)C.CCCCCCCCCCCCOS(=O)(=O)[O-]"
RESULT: 1.4575

QUERY: // query refractive index value for entry "CC(C)OC(=O)[C@@H]([NH3+])C(C)C.CCCCCCCCCCCCOS(=O)(=O)[O-]"
RESULT: 1.4555

QUERY: // query refractive index value for entry CC(C)OC(=O)[C@@H]1CCC[NH2+]1.CCCCCCCCCCCCOS(=O)(=O)[O-] [(S)-2-(isopropoxycarbonyl)pyrrolidin-1-ium dodecyl sulfate]
RESULT: 1.4575

* * *

# Conditions: 313.15 K; 101.33 kPa; Liquid; Sing-around technique in a fixed-path interferometer
Hi there, I'd appreciate the recorded speed of sound for every entry that follows.
Number only, in m/s; omit the unit.

QUERY: // query speed of sound value for entry CC(C)COC(=O)[C@@H](N)C(C)C.CCCCCCCCCCCCOS(=O)(=O)O [isobutyl L-valinate dodecyl sulfate]
RESULT: 1365.5

QUERY: // query speed of sound value for entry CC(C)COC(=O)[C@H](C)[NH3+].CCCCCCCCCCCCOS(=O)(=O)[O-] [(S)-1-isobutoxy-1-oxopropan-2-aminium dodecyl sulfate]
RESULT: 1343.9

QUERY: // query speed of sound value for entry CC(C)COC(=O)C[NH3+].CCCCCCCCCCCCOS(=O)(=O)[O-] [2-isobutoxy-2-oxoethan-1-aminium dodecyl sulfate]
RESULT: 1339

QUERY: // query speed of sound value for entry "CC(C)OC(=O)[C@@H]([NH3+])C(C)C.CCCCCCCCCCCCOS(=O)(=O)[O-]"
RESULT: 1349.4

QUERY: // query speed of sound value for entry CC(C)OC(=O)[C@@H]1CCC[NH2+]1.CCCCCCCCCCCCOS(=O)(=O)[O-] [(S)-2-(isopropoxycarbonyl)pyrrolidin-1-ium dodecyl sulfate]
RESULT: 1370.7

QUERY: // query speed of sound value for entry CC(C)OC(=O)C[NH3+].CCCCCCCCCCCCOS(=O)(=O)[O-] [2-isopropoxy-2-oxoethan-1-aminium dodecyl sulfate]
RESULT: 1337.6

QUERY: // query speed of sound value for entry CC(C)COC(=O)[C@@H]1CCC[NH2+]1.CCCCCCCCCCCCOS(=O)(=O)[O-] [(S)-2-(isobutoxycarbonyl)pyrrolidinium dodecyl sulfate]
RESULT: 1381.5

QUERY: // query speed of sound value for entry "CC(C)OC(=O)CC[C@H]([NH3+])C(=O)OC(C)C.CCCCCCCCCCCCOS(=O)(=O)[O-]"
RESULT: 1329.5

* * *

# Protocol notes: refractive index (Na D-line) (dimensionless)
# Conditions: 313.15 K; 101.33 kPa; Liquid; Standard Abbe refractometry
Hi there, I'd appreciate the recorded refractive index for every entry that follows.
Could you respond with only the numeric value?

QUERY: // query refractive index value for entry CC(C)OC(=O)C[NH3+].CCCCCCCCCCCCOS(=O)(=O)[O-] [2-isopropoxy-2-oxoethan-1-aminium dodecyl sulfate]
RESULT: 1.4576

QUERY: // query refractive index value for entry CC(C)OC(=O)[C@@H]1CCC[NH2+]1.CCCCCCCCCCCCOS(=O)(=O)[O-] [(S)-2-(isopropoxycarbonyl)pyrrolidin-1-ium dodecyl sulfate]
RESULT: 1.4492

QUERY: // query refractive index value for entry "CC(C)OC(=O)[C@@H]([NH3+])C(C)C.CCCCCCCCCCCCOS(=O)(=O)[O-]"
RESULT: 1.4483

QUERY: // query refractive index value for entry "CC(C)OC(=O)CC[C@H]([NH3+])C(=O)OC(C)C.CCCCCCCCCCCCOS(=O)(=O)[O-]"
RESULT: 1.4493

QUERY: // query refractive index value for entry CC(C)COC(=O)[C@@H]1CCC[NH2+]1.CCCCCCCCCCCCOS(=O)(=O)[O-] [(S)-2-(isobutoxycarbonyl)pyrrolidinium dodecyl sulfate]
RESULT: 1.4524

QUERY: // query refractive index value for entry CC(C)COC(=O)[C@H](C)[NH3+].CCCCCCCCCCCCOS(=O)(=O)[O-] [(S)-1-isobutoxy-1-oxopropan-2-aminium dodecyl sulfate]
RESULT: 1.4458

QUERY: // query refractive index value for entry CC(C)COC(=O)C[NH3+].CCCCCCCCCCCCOS(=O)(=O)[O-] [2-isobutoxy-2-oxoethan-1-aminium dodecyl sulfate]
RESULT: 1.456

QUERY: // query refractive index value for entry CC(C)COC(=O)[C@@H](N)C(C)C.CCCCCCCCCCCCOS(=O)(=O)O [isobutyl L-valinate dodecyl sulfate]
RESULT: 1.4488

* * *

# Conditions: 343.15 K; 101.33 kPa; Liquid; Vibrating tube method
Test readout: mass density (kg/m3)
Number only, in kg/m3; omit the unit.

QUERY: // query mass density value for entry "CC(C)OC(=O)[C@@H]([NH3+])C(C)C.CCCCCCCCCCCCOS(=O)(=O)[O-]"
RESULT: 993.9

QUERY: // query mass density value for entry CC(C)OC(=O)[C@@H]1CCC[NH2+]1.CCCCCCCCCCCCOS(=O)(=O)[O-] [(S)-2-(isopropoxycarbonyl)pyrrolidin-1-ium dodecyl sulfate]
RESULT: 1014.69

QUERY: // query mass density value for entry CC(C)COC(=O)C[NH3+].CCCCCCCCCCCCOS(=O)(=O)[O-] [2-isobutoxy-2-oxoethan-1-aminium dodecyl sulfate]
RESULT: 984.53

QUERY: // query mass density value for entry CC(C)COC(=O)[C@@H]1CCC[NH2+]1.CCCCCCCCCCCCOS(=O)(=O)[O-] [(S)-2-(isobutoxycarbonyl)pyrrolidinium dodecyl sulfate]
RESULT: 1004.98

QUERY: // query mass density value for entry CC(C)OC(=O)C[NH3+].CCCCCCCCCCCCOS(=O)(=O)[O-] [2-isopropoxy-2-oxoethan-1-aminium dodecyl sulfate]
RESULT: 996.58

QUERY: // query mass density value for entry CC(C)COC(=O)[C@H](C)[NH3+].CCCCCCCCCCCCOS(=O)(=O)[O-] [(S)-1-isobutoxy-1-oxopropan-2-aminium dodecyl sulfate]
RESULT: 1008.75

QUERY: // query mass density value for entry "CC(C)COC(=O)CC[C@H]([NH3+])C(=O)OCC(C)C.CCCCCCCCCCCCOS(=O)(=O)[O-]"
RESULT: 1000

QUERY: // query mass density value for entry "CC(C)OC(=O)CC[C@H]([NH3+])C(=O)OC(C)C.CCCCCCCCCCCCOS(=O)(=O)[O-]"
RESULT: 1016.44
